assaySystem: T1, human chemokine (C-C motif) receptor 8 (CCR8) (human, UniProt P51685 1-355)
T1 construct: On human peripheral blood lymphocytes / PBMC (native) or on human CCR8 GFP-transfected Ba/F3 cells; also called hCCR8; human CCR8
T1 sequence (P51685 whole entry): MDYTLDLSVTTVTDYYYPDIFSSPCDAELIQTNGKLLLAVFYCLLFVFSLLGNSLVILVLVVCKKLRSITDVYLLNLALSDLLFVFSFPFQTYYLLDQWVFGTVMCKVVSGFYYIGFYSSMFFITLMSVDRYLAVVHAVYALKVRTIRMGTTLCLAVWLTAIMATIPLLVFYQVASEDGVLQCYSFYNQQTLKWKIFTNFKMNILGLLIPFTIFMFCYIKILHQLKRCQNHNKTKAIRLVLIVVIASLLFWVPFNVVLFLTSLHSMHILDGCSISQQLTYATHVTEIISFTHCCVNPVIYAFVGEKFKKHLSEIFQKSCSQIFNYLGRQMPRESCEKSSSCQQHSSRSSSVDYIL
testSummary: flow cytometry blocking, PBMC CCR8+ CD4+ cells; competitor PE-AB3 (its MFI is read)
parameterMeasured: MFI
# respond with the number and nothing more

[Q] Query (binder): AB2 (antibody, V domains shown, Hybridoma monoclonal; also called antibody 2; clone 2) VH: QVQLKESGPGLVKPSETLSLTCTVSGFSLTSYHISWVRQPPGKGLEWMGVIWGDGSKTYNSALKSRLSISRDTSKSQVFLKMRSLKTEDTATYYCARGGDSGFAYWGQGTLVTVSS VL: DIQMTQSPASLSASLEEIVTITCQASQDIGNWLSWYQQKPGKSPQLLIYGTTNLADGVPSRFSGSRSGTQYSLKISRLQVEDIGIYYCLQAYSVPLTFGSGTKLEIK ; field requested: MFI
[A] 399

[Q] Also check AB5 (antibody, V domains shown, Hybridoma monoclonal; also called antibody 5; clone 5) VH: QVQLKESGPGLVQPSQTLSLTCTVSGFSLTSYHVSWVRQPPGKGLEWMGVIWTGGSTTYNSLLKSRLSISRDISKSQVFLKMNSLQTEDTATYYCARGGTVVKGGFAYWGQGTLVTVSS VL: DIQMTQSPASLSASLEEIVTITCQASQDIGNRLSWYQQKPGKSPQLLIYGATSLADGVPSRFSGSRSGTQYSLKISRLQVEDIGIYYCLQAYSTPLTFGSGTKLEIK
[A] 366

[Q] Likewise for AB13 (antibody, V domains shown, Hybridoma monoclonal; also called antibody 13; clone 13) VH: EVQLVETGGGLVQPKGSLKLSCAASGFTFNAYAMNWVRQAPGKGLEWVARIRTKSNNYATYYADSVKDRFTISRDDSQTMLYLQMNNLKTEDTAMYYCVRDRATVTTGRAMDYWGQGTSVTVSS VL: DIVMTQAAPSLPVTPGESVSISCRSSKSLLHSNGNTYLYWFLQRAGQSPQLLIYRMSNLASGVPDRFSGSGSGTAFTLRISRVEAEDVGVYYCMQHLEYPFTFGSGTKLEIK ?
[A] 970
